Where do the numbers come from? From ChEMBL document CHEMBL4765317.

- Measured Target: CYP3A4 (Homo sapiens)
- Sequence (P08684 whole entry): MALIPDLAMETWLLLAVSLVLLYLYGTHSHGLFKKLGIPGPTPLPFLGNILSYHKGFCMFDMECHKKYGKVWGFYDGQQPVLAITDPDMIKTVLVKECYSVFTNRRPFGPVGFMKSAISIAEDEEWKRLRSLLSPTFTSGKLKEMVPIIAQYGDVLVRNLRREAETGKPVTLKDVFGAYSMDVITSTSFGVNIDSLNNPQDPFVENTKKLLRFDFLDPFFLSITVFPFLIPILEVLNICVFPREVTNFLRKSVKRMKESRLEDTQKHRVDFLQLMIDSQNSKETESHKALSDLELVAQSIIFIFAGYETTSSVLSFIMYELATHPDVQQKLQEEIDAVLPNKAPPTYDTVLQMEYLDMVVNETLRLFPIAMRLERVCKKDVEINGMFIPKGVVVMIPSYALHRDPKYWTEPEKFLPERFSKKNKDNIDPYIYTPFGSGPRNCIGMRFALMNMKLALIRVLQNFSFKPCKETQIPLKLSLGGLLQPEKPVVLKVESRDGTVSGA
- Protocol Notes: Residual activity of human liver microsome CYP3A4 at 0.3 uM in presence of NADPH incubated for 10 to 30 mins by LC-MS-MS analysis
- Condition: human liver microsomes
Assay Readout: residual activity at 0.3 µM (%)

COc1ccc2ncc(F)c(CC[C@@]3(O)CO[C@@H]4[C@@H](NCc5cc6c(cn5)OCCO6)CO[C@@H]43)c2n1
89.9

---

- Protocol Notes: Cytotoxicity against human HepaRG assessed as reduction in cell viability at 1 uM incubated for 24 hrs by Cell-Titer Glo assay
- Type: cell-based
- Condition: HepaRG cells, read-out: INH
Assay Readout: cytotoxicity at 24 h, 1 µM (%)

COc1ccc2ncc(F)c(CC[C@@]3(O)CO[C@@H]4[C@@H](NCc5cc6c(cn5)OCCO6)CO[C@@H]43)c2n1
9
